# System: RPMI-8226
# ASSAY_PROCEDURE: NCI tumour cell line growth inhibition, 48 h
Activity calls are given as the source filed them. No stated cut-off is given here; in the data, active = GI50 up to about 1.1 µM and inactive = higher.
Outcome codes: 1.0 (active), 0.0 (inactive)

[
  {
    "COMPOUND": "COC(=O)C(Cc1cc(OC)c(OC)c(OC)c1)(NC(=O)c1ccccc1)P(=O)(OC)OC (stereo not given)",
    "ASSIGNED_LABEL": 0.0
  },
  {
    "COMPOUND": "COc1ccc(C2C(Cl)C(=O)N2n2cnc3ccccc3c2=O)cc1 (stereo not given)",
    "ASSIGNED_LABEL": 0.0
  },
  {
    "COMPOUND": "Nc1cc2ncnc(Nc3cccc(Br)c3)c2cn1",
    "ASSIGNED_LABEL": 0.0
  },
  {
    "COMPOUND": "CCNc1cc2c3c(c1)CCN3CCC2",
    "ASSIGNED_LABEL": 0.0
  },
  {
    "COMPOUND": "CC(C)(C)OC(=O)C1C(=O)NC(=O)CC1C(COCc1ccccc1)OCc1ccccc1 (stereo not given)",
    "ASSIGNED_LABEL": 0.0
  },
  {
    "COMPOUND": "CN(C)CCNC(=O)c1ccc(NCCCN(C)CCCNc2ccc(C(=O)NCCN(C)C)c3nc4ccc([N+](=O)[O-])cc4c(O)c23)c2c(O)c3cc([N+](=O)[O-])ccc3nc12",
    "ASSIGNED_LABEL": 1.0
  },
  {
    "COMPOUND": "C=C(CN(CC)CC)C1(c2ccccc2)CC2(CCCC2)C(=O)O1 (stereo not given)",
    "ASSIGNED_LABEL": 0.0
  },
  {
    "COMPOUND": "COc1cc(C2c3cc4c(cc3[C@H](NC(=O)c3cccs3)C3COC(=O)[C@H]23)OCO4)cc(OC)c1OC (stereo not given in full)",
    "ASSIGNED_LABEL": 1.0
  },
  {
    "COMPOUND": "Cc1cc(C)c2c(=N)c3ccccc3n(CCCCCCn3c4ccccc4c(=N)c4c(C)cc(C)nc43)c2n1",
    "ASSIGNED_LABEL": 1.0
  },
  {
    "COMPOUND": "O=C(NC(=O)c1cc2cc(Br)cc(Br)c2oc1=O)Oc1ccccc1",
    "ASSIGNED_LABEL": 0.0
  },
  {
    "COMPOUND": "C=CCONC(=O)c1ccc(Cl)cc1",
    "ASSIGNED_LABEL": 0.0
  },
  {
    "COMPOUND": "CO[C@]12C[C@H](CNC(=O)c3cc(Br)c(Br)[nH]3)O[C@H]1NC(=O)N2",
    "ASSIGNED_LABEL": 0.0
  },
  {
    "COMPOUND": "C(=C\\Nc1ccc(-c2ccccc2)cc1)/C=N/c1ccc(-c2ccccc2)cc1",
    "ASSIGNED_LABEL": 0.0
  },
  {
    "COMPOUND": "CN(C)CCNC(=O)c1cccc2c(NCCN(C)C)c3ccccc3nc12",
    "ASSIGNED_LABEL": 0.0
  },
  {
    "COMPOUND": "Cc1c2c(C(N)=O)nccc2c(C)c2c1c1ccccc1n2Cc1ccccc1",
    "ASSIGNED_LABEL": 0.0
  },
  {
    "COMPOUND": "Cc1n[nH]c(=O)c2cc(-c3ccccc3)[nH]c12",
    "ASSIGNED_LABEL": 0.0
  },
  {
    "COMPOUND": "COC(=O)C(Cc1ccccc1)NC(=O)C(CCCNC(=N)N)NC(=O)OCc1ccccc1 (stereo not given)",
    "ASSIGNED_LABEL": 0.0
  },
  {
    "COMPOUND": "COC(=O)c1nc(-c2nc(CCNC(=O)OC(C)(C)C)sc2Cl)sc1Cl",
    "ASSIGNED_LABEL": 0.0
  },
  {
    "COMPOUND": "CCC(C)C1NC(=O)CNC(=O)C2Cc3c([nH]c4cc(O)ccc34)[S+]([O-])CC(NC(=O)CNC1=O)C(=O)NC(CC(=O)O)C(=O)N1CC(O)CC1C(=O)NC(C(C)C(O)CO)C(=O)N2 (stereo not given)",
    "ASSIGNED_LABEL": 0.0
  },
  {
    "COMPOUND": "CN(CCO)/N=N/c1n[nH]cc1C(N)=O",
    "ASSIGNED_LABEL": 0.0
  }
]
